Assay: pH stability tests
Type: physicochemical
Details: pH 5.0, 3 days
Below, each of the molecules is paired with its reported pH stability value.

// known answers, use as guide
Prompt line: Record request: pH stability value, item COCCOC(=O)NCCO/N=C(\C)C(=O)c1ccccc1
Response line: <1%

Prompt line: How about this molecule: COCCOC(=O)NCCO/N=C(\C)C(=O)Nc1ccccc1 [drawing 134]
Response line: <1%

Prompt line: What about this molecule? COCCOC(=O)NCCO/N=C(\C)COc1ccccc1
Response line: 5%

Prompt line: Would you mind doing COCCOC(=O)NCCO/N=C(\C)CNC(=O)c1ccccc1 as well?
Response line: 5%

Prompt line: Next: COCCOCNCCO/N=C(\C)CC(=O)c1ccccc1 [drawing 139]
Response line: <1%

Next:
Prompt line: Value lookup for pH stability; key = COCCOCNCCO/N=C(\C)CC(=O)c1ccccc1 [drawing 135]
Response line: <1%

Prompt line: Also COCCOC(=O)NCCO/N=C(\C)C(=O)Nc1ccccc1 [drawing 138] , if possible.
Response line: <1%

Prompt line: Next record, please: COCCOC(=O)NCCO/N=C1\C(=O)Nc2ccccc21
Response line: <1%

---

Assay: pH stability tests
Type: physicochemical
Conditions: pH 4.0, 4 days
MEASUREMENT NAME: pH stability

Solved entries (count: 7):
Prompt line: Record request: pH stability value, item COCCOC(=O)NCCO/N=C(\C)C(=O)c1ccccc1
Response line: <1%

Prompt line: Also COCCOCNCCO/N=C(\C)CC(=O)c1ccccc1 [drawing 139] , if possible.
Response line: <1%

Prompt line: And what about the molecule COCCOC(=O)NCCO/N=C(\C)C(=O)Nc1ccccc1 [drawing 138] ?
Response line: <1%

Prompt line: Record: COCCOC(=O)NCCO/N=C1\C(=O)Nc2ccccc21
Response line: <1%

Prompt line: Now this one: COCCOC(=O)NCCO/N=C(\C)CNC(=O)c1ccccc1
Response line: 11%

Prompt line: One more molecule: COCCOCNCCO/N=C(\C)CC(=O)c1ccccc1 [drawing 135]
Response line: <1%

Prompt line: Param item: COCCOC(=O)NCCO/N=C(\C)COc1ccccc1
Response line: 8%

Now, please, on to the next molecule.
Prompt line: Any idea what its pH stability is? The molecule is COCCOC(=O)NCCO/N=C(\C)C(=O)Nc1ccccc1 [drawing 134]
Response line: <1%

---

Experiment: pH stability tests
Type: physicochemical
Settings: pH 8.0, 7 days
# Lookup of reported pH stability keyed by entry

Prompt line: Fill blank: measured pH stability of the molecule COCCOC(=O)NCCO/N=C(\C)C(=O)c1ccccc1 is ____.
Response line: <1%

Prompt line: Follow-up item: COCCOCNCCO/N=C(\C)CC(=O)c1ccccc1 [drawing 135]
Response line: <1%

Prompt line: Then COCCOC(=O)NCCO/N=C(\C)C(=O)Nc1ccccc1 [drawing 134] ?
Response line: <1%

Prompt line: Also need COCCOC(=O)NCCO/N=C1\C(=O)Nc2ccccc21 , thanks.
Response line: <1%

Prompt line: What do you get for COCCOC(=O)NCCO/N=C(\C)CNC(=O)c1ccccc1 ?
Response line: 33%

Prompt line: COCCOCNCCO/N=C(\C)CC(=O)c1ccccc1 [drawing 139] ?
Response line: <1%

Prompt line: Please answer likewise for COCCOC(=O)NCCO/N=C(\C)C(=O)Nc1ccccc1 [drawing 138]
Response line: <1%

Please examine the following record next.
Prompt line: Reported pH stability for COCCOC(=O)NCCO/N=C(\C)COc1ccccc1 : what is it?
Response line: 45%
